# System: human APOE RNA
# method.summary: Dose-dependent inhibition of human APOE RNA in HepG2 cells, electroporation, 50,000 cells per well, RT-PCR normalized to GAPDH (Example 4, Tables 8-10)
# Assay type: cell-based
# study.conditions: reduction of human APOE RNA, HepG2 cells, electroporation, 24-hour treatment, Table 8
Strand notation (5' to 3'): a small letter for the sugar, then the base; units joined by * are phosphorothioate-linked, units joined directly phosphodiester-linked; [ ] holds rarer units or linkages, { } end groups; capitals alone tell only the bases. [ms] = mesyl phosphoramidate linkage; e = 2'-O-(2-methoxyethyl) (MOE); k = constrained ethyl (cEt); [5mC] = 5-methylcytosine; d = 2'-deoxy (DNA)
endpoint.name: IC50 (nM)

substance	unit.annotation	recorded.result
1778128: modified oligonucleotide complementary to human APOE RNA (eA*e[5mC]eTeTkGkG*dT*dG[ms]dA[ms]dA*dT*d[5mC]*dT*dT*dT*dA[ms]kTeT*eA*eA; antisense) [compound 1778128]	nM	100
1778131: modified oligonucleotide complementary to human APOE RNA (eA*e[5mC]eTeTeGkG*dT*dG[ms]dA[ms]dA*dT*d[5mC]*dT*dT*dT*dA[ms]kTkT*eA*eA; antisense) [compound 1778131]	nM	630
^mCksTksTksGdzGdzTdzGdzAdzAdzTds^mCdsTdsTdsTdsAdsTdsTksAksAdzAk (antisense k[5mC]*kT*kT*dG[ms]dG[ms]dT[ms]dG[ms]dA[ms]dA[ms]dT*d[5mC]*dT*dT*dT*dA*dT*kT*kA*dA[ms]kA) [Compound No. 1785602]	nM	220
1778111: modified oligonucleotide complementary to human APOE RNA (eA*e[5mC]eTeTeG*kG*dT*dG[ms]dA[ms]dA*dT*d[5mC]*dT*dT*dT*dA[ms]eTeT*eA*eA; antisense) [compound 1778111]	nM	240
1778114: modified oligonucleotide complementary to human APOE RNA (eA*e[5mC]eTeTkG*kG*dT*dG[ms]dA[ms]dA*dT*d[5mC]*dT*dT*dT*dA[ms]eTeT*eA*eA; antisense) [compound 1778114]	nM	430
1778123: modified oligonucleotide complementary to human APOE RNA (eA*e[5mC]eTeTeG*eG*dT*dG[ms]dA[ms]dA*dT*d[5mC]*dT*dT*dT*dA[ms]kTkT*eA*eA; antisense) [compound 1778123]	nM	320
1778127: modified oligonucleotide complementary to human APOE RNA (eA*e[5mC]eTeTkGkG*dT*dG[ms]dA[ms]dA*dT*d[5mC]*dT*dT*dT*dA[ms]kTeT[ms]eA[ms]eA; antisense) [compound 1778127]	nM	310
1778125: modified oligonucleotide complementary to human APOE RNA (eA*e[5mC]eTeTeGeG*dT*dG[ms]dA[ms]dA*dT*d[5mC]*dT*dT*dT*dA[ms]kTkT*eA*eA; antisense) [compound 1778125]	nM	320
1778130: modified oligonucleotide complementary to human APOE RNA (eA*e[5mC]eTeTeG*kG*dT*dG[ms]dA[ms]dA*dT*d[5mC]*dT*dT*dT*dA[ms]kTkT*eA*eA; antisense) [compound 1778130]	nM	400
1785598: modified oligonucleotide complementary to human APOE RNA (k[5mC]*kT*kT*dG[ms]dG[ms]dT[ms]dG[ms]dA[ms]dA[ms]dT*d[5mC]*dT*dT*dT*dA*dT[ms]kT*kA*dA[ms]kA; antisense) [compound 1785598]	nM	840
